Parameter: kon. Scope: all listed entries.
# testSystem: T1, human TG2 (Homo sapiens, UniProt P21980)
# T1 sequence (P21980 1-687): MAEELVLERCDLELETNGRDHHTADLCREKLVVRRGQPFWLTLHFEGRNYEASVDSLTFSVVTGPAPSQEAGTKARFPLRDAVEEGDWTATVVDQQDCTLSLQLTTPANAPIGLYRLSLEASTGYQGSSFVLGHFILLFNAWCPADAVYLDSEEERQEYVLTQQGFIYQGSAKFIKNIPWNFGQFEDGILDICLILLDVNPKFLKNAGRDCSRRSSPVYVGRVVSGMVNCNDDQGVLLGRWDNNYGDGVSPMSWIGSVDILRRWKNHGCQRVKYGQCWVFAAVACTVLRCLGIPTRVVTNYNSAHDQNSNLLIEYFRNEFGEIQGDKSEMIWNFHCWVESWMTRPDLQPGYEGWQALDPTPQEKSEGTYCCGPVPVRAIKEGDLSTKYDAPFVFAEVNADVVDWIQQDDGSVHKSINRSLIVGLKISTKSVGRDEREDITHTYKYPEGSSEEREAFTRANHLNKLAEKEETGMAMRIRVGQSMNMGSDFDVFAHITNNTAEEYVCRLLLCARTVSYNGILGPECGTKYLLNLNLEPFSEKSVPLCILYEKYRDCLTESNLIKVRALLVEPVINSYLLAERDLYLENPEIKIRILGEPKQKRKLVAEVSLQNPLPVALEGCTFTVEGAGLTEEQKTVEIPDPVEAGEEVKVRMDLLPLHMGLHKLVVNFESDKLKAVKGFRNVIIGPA
# experiment: Biacore (SPR) affinity, human TG2
# Assay type: binding
# Parameters: purchased Zedira GmbH T002
# reportedConditions: +Ca^2+ (1 mM CaCl2 running buffer; includes rows without a Ca mark)
Give your result in M⁻¹ s⁻¹ as a bare value.

hBB001BB: humanised BB7 antibody (heavy chain hBB001HB, light chain hBB001KB by name) (antibody, V domains shown) VH: EVQLLESGGGLVQPGGSLRLSCAASGIIFSSSAMSWVRQAPGKGLEWVATISSGGRSTYYPDSVKGRFTVSRDSSKNTLYLQMNSLRAEDTAVYYCAKLISPYWGQGTLVTVSS VL: DIKMTQSPSSLSASVGDRVTITCKASQDINSYLTWFQQKPGKAPKTLIYLTNRLMDGVPSRFSGSGSGQEFLLTISSLQPEDFATYYCLQYVDFPYTFGQGTKVEIK: 240000
hAB005: humanised AB1 antibody; heavy chain version RHA with light chain version RKJ (antibody, V domains shown) VH: EVQLLESGGGLVQPGGSLRLSCAASGFTFSSSAMSWVRQAPGKGLEWVSTISVGGGKTYYPDSVKGRFTISRDNSKNTLYLQMNSLRAEDTAVYYCAKLISLYWGQGTLVTVSS VL: DIQMTQSPSSLSASVGDRVTITCKASQDINSYLTWFQQKPGKAPKSLIYRTNRLFDGVPSRFSGSGSGTDFFLTISSLQPEDFATYYCLQYDDFPYTFGQGTKVEIK: 190000
hAB004: humanised AB1 antibody; heavy chain version RHA with light chain version RKE (antibody, V domains shown) VH: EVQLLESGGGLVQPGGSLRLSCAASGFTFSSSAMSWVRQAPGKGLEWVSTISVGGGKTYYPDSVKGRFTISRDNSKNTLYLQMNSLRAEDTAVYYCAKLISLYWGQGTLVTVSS VL: EIVLTQSPSSLSASVGDRVTITCKASQDINSYLTWYQQKPGKAPKLLIYRTNRLFDGVPSRFSGSGSGTDFFFTISSLQPEDFGTYYCLQYDDFPYTFGGGTKLEIK: 200000

API: the following record is the query input.
Sample cDC001: chimeric DC1 antibody: murine variable regions, human IgG1 and human kappa (antibody, V domains shown) VH: EVQLVESGGGLVKPGGSLKLSCAASGFTLSTHAMSWVRQTPEKRLEWVATISSGGRSTYYPDSVKGRFTISRDNVKNTLYLQLSSLRSEDTAVYFCARLISTYWGQGTTLTVSS VL: DITMTQSPSSIYASLGERVTITCKASQDINSYLTWFQQKPGKSPKILIYLVNRLVDGVPSRFSGSGSGQDYALTISSLEYEDMGIYYCLQYDDFPYTFGGGTKLEIK ; kon observed: 320000
